# System tested: T1, human Gal3 (Homo sapiens, UniProt P17931)
# T1 construct: His; purchased AcroBio GA3-H5129
# T1 sequence (P17931 whole entry): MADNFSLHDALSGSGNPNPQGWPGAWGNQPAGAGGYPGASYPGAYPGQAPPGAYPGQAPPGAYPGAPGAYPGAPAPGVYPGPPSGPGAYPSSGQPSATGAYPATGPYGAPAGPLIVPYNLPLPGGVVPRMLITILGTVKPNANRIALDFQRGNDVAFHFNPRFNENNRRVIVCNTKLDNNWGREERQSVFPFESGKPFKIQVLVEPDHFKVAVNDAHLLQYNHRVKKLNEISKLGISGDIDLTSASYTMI
# Experiment description: Antibody binning assays (competition for binding to Gal3)
# Condition details: binning per Examples 3 and 18
Measured endpoint: epitope bin (competitive binding to Gal3)

19B5.2E6: anti-Gal3 monoclonal antibody (antibody, V domains shown) VH: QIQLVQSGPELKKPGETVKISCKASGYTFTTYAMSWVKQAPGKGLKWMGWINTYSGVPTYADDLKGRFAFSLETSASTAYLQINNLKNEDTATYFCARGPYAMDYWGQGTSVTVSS VL: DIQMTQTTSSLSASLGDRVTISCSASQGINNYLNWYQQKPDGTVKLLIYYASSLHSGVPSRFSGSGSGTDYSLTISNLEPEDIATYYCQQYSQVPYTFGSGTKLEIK    bin 3
